Molecular target: Tyrosine-protein phosphatase non-receptor type 1 (Homo sapiens, UniProt P18031)
Sequence (P18031 whole entry): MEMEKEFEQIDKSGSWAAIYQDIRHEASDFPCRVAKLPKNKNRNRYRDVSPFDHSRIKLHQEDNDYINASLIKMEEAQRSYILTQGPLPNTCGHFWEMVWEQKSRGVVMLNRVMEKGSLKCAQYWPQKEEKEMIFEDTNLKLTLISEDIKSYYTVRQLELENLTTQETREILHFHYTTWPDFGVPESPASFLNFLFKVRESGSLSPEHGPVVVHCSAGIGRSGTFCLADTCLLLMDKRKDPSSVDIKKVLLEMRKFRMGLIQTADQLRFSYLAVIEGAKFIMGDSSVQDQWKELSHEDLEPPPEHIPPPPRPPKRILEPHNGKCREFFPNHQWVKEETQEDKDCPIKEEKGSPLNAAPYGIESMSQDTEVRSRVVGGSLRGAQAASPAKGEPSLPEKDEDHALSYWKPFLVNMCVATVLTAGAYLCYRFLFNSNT
Assay: Inhibition of PTP1B assessed as residual enzyme activity
experimentalReadout: pKi
Answers are plain numbers, as −log10 of the molar value.

c1ccc2c(c1)ccc1oc(-c3ccc(OCCN4CCCC4)cc3)nc12
4.47
CCN(CC)CCOc1ccc(-c2nc3c(ccc4ccccc43)o2)cc1
4.46

Below are some compounds; for each one, tell me its pKi.
1. CN(C)CCCOc1ccc(-c2nc3c(ccc4ccccc43)o2)cc1
2. CN(C)CCOc1ccc(-c2nc3c(ccc4ccccc43)o2)cc1

-- reply
1: 4.47; 2: 4.60

Provide reported pKi for each item, in the same order as listed.
1. CCN(CC)CCCOc1ccc(-c2nc3c(ccc4ccccc43)o2)cc1
2. c1ccc2c(c1)ccc1oc(-c3ccc(OCCN4CCCCC4)cc3)nc12
3. CCCCN(C)CCOc1ccc(-c2nc3c(ccc4ccccc43)o2)cc1

-- reply
1. 4.39
2. 4.56
3. 4.35

====

Exercise: for every item that follows, state its recorded Activity.
System: Rattus norvegicus
Assay: Antihyperglycemic activity against sucrose-challenged streptozotocin-induced fasted Sprague-Dawley rat assessed as reduction in blood glucose at 100 mg/kg, po administered 30 mins before sucrose challenge measured after 5 hrs post sucrose dose relative to control
Assay type: functional
Parameters: scale not given: the % may be the effect or the level left
One number for each entry, in %.

CN(C)CCOc1ccc(-c2nc3c(ccc4ccccc43)o2)cc1
27.9

List Activity for every entry below, keeping the order given.
1. c1ccc2c(c1)ccc1oc(-c3ccc(OCCN4CCCCC4)cc3)nc12
2. COc1ccc(Cl)cc1C(=O)NCCc1ccc(S(=O)(=O)NC(=O)NC2CCCCC2)cc1 [GLYBURIDE]
3. CCCCN(C)CCOc1ccc(-c2nc3c(ccc4ccccc43)o2)cc1
4. CCN(CC)CCOc1ccc(-c2nc3c(ccc4ccccc43)o2)cc1

-- reply
1: 16.4; 2: 32.8; 3: 17.4; 4: 11.4

====

Test system: Rattus norvegicus
Test: Antihyperglycemic activity against sucrose-challenged streptozotocin-induced fasted Sprague-Dawley rat assessed as reduction in blood glucose at 100 mg/kg, po administered 30 mins before sucrose challenge measured after 24 hrs post sucrose dose relative to control
Type: functional
Set-up: scale not given: the % may be the effect or the level left
experimentalReadout: Activity (%)
Numbers only, in %.

Some molecules with known Activity results, for comparison:
c1ccc2c(c1)ccc1oc(-c3ccc(OCCCN4CCCC4)cc3)nc12
12.9
CCCCN(C)CCOc1ccc(-c2nc3c(ccc4ccccc43)o2)cc1
18.7
CN(C)CCCOc1ccc(-c2nc3c(ccc4ccccc43)o2)cc1
20.3
CN(C)C(=N)NC(=N)N
20.2
c1ccc2c(c1)ccc1oc(-c3ccc(OCCN4CCCCC4)cc3)nc12
15.7

I need Activity for every entry listed below, if you could help.
1. CN(C)CCOc1ccc(-c2nc3c(ccc4ccccc43)o2)cc1
2. CCCCN(C)CCCOc1ccc(-c2nc3c(ccc4ccccc43)o2)cc1

-- reply
1. 25.7
2. 9.2
